Reported Ki is given for each of the following molecules.
# TARGET_UNDER_TEST: purified human Factor XIa (Homo sapiens (Human), UniProt P03951)
# Sequence (P03951 388-625): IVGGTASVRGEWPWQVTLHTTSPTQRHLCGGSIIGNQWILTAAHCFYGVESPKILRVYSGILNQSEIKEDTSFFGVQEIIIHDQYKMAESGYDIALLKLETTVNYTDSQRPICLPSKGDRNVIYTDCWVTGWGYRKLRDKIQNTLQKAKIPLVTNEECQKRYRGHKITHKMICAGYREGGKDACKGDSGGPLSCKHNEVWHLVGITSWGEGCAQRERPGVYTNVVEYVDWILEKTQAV
# Sequence (P03951 19-387 partner): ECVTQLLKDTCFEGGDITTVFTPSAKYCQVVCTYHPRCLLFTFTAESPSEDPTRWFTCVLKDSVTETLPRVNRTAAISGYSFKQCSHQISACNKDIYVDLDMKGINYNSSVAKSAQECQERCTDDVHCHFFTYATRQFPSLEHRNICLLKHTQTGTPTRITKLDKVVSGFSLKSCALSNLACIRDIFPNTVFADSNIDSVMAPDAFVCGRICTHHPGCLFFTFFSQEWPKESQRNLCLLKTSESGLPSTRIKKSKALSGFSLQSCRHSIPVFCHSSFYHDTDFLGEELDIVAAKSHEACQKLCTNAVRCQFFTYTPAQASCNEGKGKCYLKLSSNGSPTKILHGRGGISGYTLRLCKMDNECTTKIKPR
# METHOD_DESCRIPTION: Factor XIa enzyme inhibition assay (chromogenic substrate S-2366)
# Type: biochemical
# APPLIED_CONDITIONS: substrate S-2366, pH 7.4
Counter-ions that a name gives are not always drawn.
PROPERTY_MEASURED: Ki (nM)

- MOLECULE: "COC(=O)Nc1ccc2c(c1)NC(=O)CCCC[C@H](NC(=O)/C=C/c1cc(Cl)ccc1-n1cnnn1)C1=NC=C2O1 [Example I-134, trifluoroacetic acid salt]"
  TARGET_UNDER_TEST: "purified human Factor XIa (Homo sapiens (Human), UniProt P03951)"
  UNIT_SYMBOL: "nM"
  READING_QUALIFIER: "<"
  VALUE: 5
- MOLECULE: "COC(=O)Nc1ccc2c(c1)C(=O)C(F)(F)CCCC[C@H](NC(=O)/C=C/c1cc(Cl)ccc1-n1cnnn1)c1nc-2c[nH]1 [Example I-270, TFA salt]"
  TARGET_UNDER_TEST: "purified human Factor XIa (Homo sapiens (Human), UniProt P03951)"
  UNIT_SYMBOL: "nM"
  READING_QUALIFIER: "="
  VALUE: 1740
- MOLECULE: "COC(=O)Nc1ccc2c(c1)NCCCCC[C@H](NC(=O)/C=C/c1c(C(C)=O)ccc(Cl)c1F)c1nc-2c(C#N)[nH]1"
  TARGET_UNDER_TEST: "purified human Factor XIa (Homo sapiens (Human), UniProt P03951)"
  UNIT_SYMBOL: "nM"
  READING_QUALIFIER: "="
  VALUE: 133
- MOLECULE: "O=C(/C=C/c1cc(Cl)ccc1-n1cnnn1)N[C@H]1CCCCC(=O)Nc2cnccc2-c2ccnc1c2 [Example 138, TFA salt]"
  TARGET_UNDER_TEST: "purified human Factor XIa (Homo sapiens (Human), UniProt P03951)"
  UNIT_SYMBOL: "nM"
  READING_QUALIFIER: "="
  VALUE: 20
- MOLECULE: "COC(=O)Nc1ccc2c(c1)NC(=O)CC(O)C(O)C[C@H](NC(=O)/C=C/c1cc(Cl)ccc1-n1cnnn1)c1nc-2c[nH]1 (single isomer, unassigned)"
  TARGET_UNDER_TEST: "purified human Factor XIa (Homo sapiens (Human), UniProt P03951)"
  UNIT_SYMBOL: "nM"
  READING_QUALIFIER: "="
  VALUE: 192
- MOLECULE: "COC(=O)Nc1ccc2c(c1)NCCCCC[C@H](NC(=O)/C=C/c1cc(Cl)ccc1-n1cnnn1)c1nc-2c(C#N)[nH]1 [Example I-115, TFA salt]"
  TARGET_UNDER_TEST: "purified human Factor XIa (Homo sapiens (Human), UniProt P03951)"
  UNIT_SYMBOL: "nM"
  READING_QUALIFIER: "<"
  VALUE: 5
